These data points were gathered from ChEMBL document CHEMBL1909046.

# TEST DETAILS: DRUGMATRIX: Calcium Channel Type L, Dihydropyridine radioligand binding (ligand: [3H] Nitrendipine)
# Type: cell membranes, Rattus norvegicus, Wistar, Cerebral cortex, Membrane
# CONDITION NOTES: Not Active = under 50% inhibition at 10 µM
RESULT TYPE: Ki

COMPOUND	RESULT
CC(CCc1ccc(O)cc1)NCCc1ccc(O)c(O)c1 (stereo not given) [DOBUTAMINE]	Not Active
NC[C@H]1O[C@H](O[C@H]2[C@H](O)[C@@H](O[C@H]3O[C@H](CO)[C@@H](O)[C@H](N)[C@H]3O)[C@H](N)C[C@@H]2N)[C@H](N)C[C@@H]1O [TOBRAMYCIN]	Not Active
C[C@]12CC[C@H]3[C@@H](CCC4=CC(=O)CC[C@@]43C)[C@@H]1CC[C@@H]2O [TESTOSTERONE]	Not Active
CO[C@H]1[C@@H](O)[C@H](N)[C@@H](O[C@H]2O[C@H]([C@H](C)N)CC[C@H]2N)[C@H](O)[C@@H]1N(C)C(=O)CN [ASTROMICIN]	Not Active
CNC(=C[N+](=O)[O-])NCCSCc1csc(CN(C)C)n1 [NIZATIDINE]	Not Active
C=C1/C(=C\C=C2/CCC[C@]3(C)[C@@H]([C@H](C)CCCC(C)C)CC[C@@H]23)C[C@@H](O)C[C@@H]1O [ALFACALCIDOL]	Not Active
CNS(=O)(=O)Cc1ccc2[nH]cc(CCN(C)C)c2c1	Not Active
COc1cc(C(=O)NS(=O)(=O)c2ccccc2C)ccc1Cc1cn(C)c2ccc(NC(=O)OC3CCCC3)cc12 [ZAFIRLUKAST]	Not Active
CC(C(=O)O)c1ccc(-c2ccccc2)c(F)c1 (stereo not given) [FLURBIPROFEN]	Not Active
CCN[C@@H](C)Cc1cccc(C(F)(F)F)c1 [DEXFENFLURAMINE]	Not Active
O=C(O)c1cc(=O)c2c(OCC(O)COc3cccc4oc(C(=O)O)cc(=O)c34)cccc2o1 [CROMOLYN]	Not Active
CO[C@H]1C[C@@H]2CC[C@@H](C)[C@@](O)(O2)C(=O)C(=O)N2CCCC[C@H]2C(=O)O[C@H]([C@H](C)C[C@@H]2CC[C@@H](O)[C@H](OC)C2)CC(=O)[C@H](C)/C=C(\C)[C@@H](O)[C@@H](OC)C(=O)[C@H](C)C[C@H](C)/C=C/C=C/C=C/1C [SIROLIMUS]	Not Active
CCCCCC[C@H]1C(=O)O[C@H](C)[C@H](NC(=O)c2cccc(NC=O)c2O)C(=O)O[C@@H](C)[C@@H]1OC(=O)CC(C)C [ANTIMYCIN A]	Not Active
CC[C@H]1OC(=O)[C@H](C)[C@@H](O[C@H]2C[C@@](C)(OC)[C@@H](O)[C@H](C)O2)[C@H](C)[C@@H](O[C@@H]2O[C@H](C)C[C@H](N(C)C)[C@H]2O)[C@](C)(OC)C[C@@H](C)C(=O)[C@H](C)[C@@H](O)[C@]1(C)O [CLARITHROMYCIN]	Not Active
Nc1ccc(S(=O)(=O)Nc2nccs2)cc1 [SULFATHIAZOLE]	Not Active
COc1cc(N)nc2[nH]c(-c3ccc(F)cc3)c(-c3ccncc3)c12	Not Active
C[C@@H](O)[C@H]1C(=O)N2C(C(=O)O)=C(S[C@@H]3CN[C@H](C(=O)N(C)C)C3)[C@H](C)[C@H]12 [MEROPENEM]	Not Active
Nc1nc(Cl)nc2c1ncn2[C@H]1C[C@H](O)[C@@H](CO)O1 [CLADRIBINE]	Not Active
N=C(N)N/N=C/c1c(Cl)cccc1Cl [GUANABENZ]	Not Active
NC[C@@H]1O[C@H](O[C@H]2[C@@H](O)[C@H](O[C@@H]3[C@@H](O)[C@H](N)C[C@H](N)[C@H]3O[C@H]3O[C@H](CN)[C@@H](O)[C@H](O)[C@H]3N)O[C@@H]2CO)[C@H](N)[C@@H](O)[C@@H]1O [FRAMYCETIN]	Not Active
CN(Cc1cnc2nc(N)nc(N)c2n1)c1ccc(C(=O)N[C@@H](CCC(=O)O)C(=O)O)cc1 [METHOTREXATE]	Not Active
CC(C)(Oc1ccc(C2CC2(Cl)Cl)cc1)C(=O)O (stereo not given) [CIPROFIBRATE]	Not Active
OCCN1CCN(CCCN2c3ccccc3Sc3ccc(Cl)cc32)CC1 [PERPHENAZINE]	Not Active
COc1ccccc1OCC(O)CO (stereo not given) [GUAIFENESIN]	Not Active
O=P1(N(CCCl)CCCl)NCCCO1 (stereo not given) [CYCLOPHOSPHAMIDE ANHYDROUS]	Not Active
Nc1nc(N)nc(NC2CC2)n1 [CYROMAZINE]	Not Active
CCCc1nn(C)c2c(=O)[nH]c(-c3cc(S(=O)(=O)N4CCN(C)CC4)ccc3OCC)nc12	Not Active
C=C(CC)C(=O)c1ccc(OCC(=O)O)c(Cl)c1Cl [ETHACRYNIC ACID]	Not Active
CCOC(N)=O	Not Active
O=C(c1ccccc1Cl)N1CCC(Cc2ccccc2)CC1	Not Active
